The reported measurements were obtained from the supplement of paper PMC10567573.

B1: CDC25A (parent)
chain: QLIDPDENKENEAFEFKKPVRPVS

- Variants of: B1
- methodNotes: protein stability index of a GFP-peptide fusion (GPS, HEK-293T) (PSI 1-6); higher = more stable;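 also: lentivirally expressed fusions sorted by FACS into six bins by GFP to DsRed ratio, PSI derived from sequencing read proportions per bin multiplied by bin number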
- testParameters: c terminus: a fixed tail appended
This section presents variants with their documented protein stability index values.
Answer with a number only.

Solved cases (8 shown):
[[record]]
mutation = "E15A"
measuredendpoint = "protein stability index"
observed = 4.01

[[record]]
mutation = "P19S"
measuredendpoint = "protein stability index"
observed = 4.09

[[record]]
mutation = "F14Q"
measuredendpoint = "protein stability index"
observed = 3.94

[[record]]
mutation = "P19Q"
measuredendpoint = "protein stability index"
observed = 4.02

[[record]]
mutation = "K9I"
measuredendpoint = "protein stability index"
observed = 3.89

[[record]]
mutation = "K9F"
measuredendpoint = "protein stability index"
observed = 4.04

[[record]]
mutation = "V20I"
measuredendpoint = "protein stability index"
observed = 4

[[record]]
mutation = "R21K"
measuredendpoint = "protein stability index"
observed = 4.04


*Q* Which protein stability index is listed for `N8S` ?
*A* 4.05
